# Assay Procedure: chemical genetic growth profiling, strain panel (AID 1159580);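 also: tested at 20 µM; growth read once vehicle control cultures reached saturation at 30 °C; 1 = growth at the plate median or of vehicle wells; lower values mean less growth of the strain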
# Stated Conditions: S. cerevisiae deletion strains, growth OD, locus YJR066W, strain TOR1 (second series), hits give low values
In all, about 5,500 compounds went through this assay and about 2,000 (36%) were called active. About 18% were inconclusive and are not listed. This is one part of the list.
Item-by-item account of normalized growth
The response must contain the number and no unit.

Example results:
Cc1ccccc1C(=O)Oc1ccc(C(F)(F)F)cc1[N+](=O)[O-] : 0.891
COc1ccc(/C=C2\CSc3ccc(F)cc3C2=O)cc1 : 0.909

Lab note: next compound to report on.
### Prompt // returns reported normalized growth for input `Cc1cc(NNC(=O)c2ccccc2Cl)nc2c1c(C)nn2C`
### Response 0.926

---

Property: normalized growth; scope: individual molecules
# Assay Procedure: chemical genetic growth profiling, strain panel (AID 1159580);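 also: tested at 20 µM; growth read once vehicle control cultures reached saturation at 30 °C; 1 = growth at the plate median or of vehicle wells; lower values mean less growth of the strain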
# Stated Conditions: S. cerevisiae deletion strains, growth OD, locus YDL005C, strain med2, hits give low values
About 2,000 (36%) of roughly 5,500 compounds were called active. About 18% were inconclusive and are not listed. Some of the results follow.
Write no unit; give the number alone.

Reference set, count: 3
CCN(CC)CCCC(C)Nc1c2ccc(Cl)cc2nc2ccc(OC)cc12 (centres undefined) : 1.01
COc1cc(O)c(C(=O)/C=C/c2ccc(O)c(OC)c2)c(OC)c1 : 0.976
CN[C@@H](C)[C@@H](O)c1ccccc1 : 0.994

### Prompt Recorded normalized growth of CC(CCc1ccccc1)NC(C)C(O)c1ccc(O)cc1 (centres undefined) , please.
### Response 0.999

---

# Assay Procedure: chemical genetic growth profiling, strain panel (AID 1159580);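 also: tested at 20 µM; growth read once vehicle control cultures reached saturation at 30 °C; 1 = growth at the plate median or of vehicle wells; lower values mean less growth of the strain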
# Stated Conditions: S. cerevisiae deletion strains, growth OD, locus YJL129C, strain trk1, hits give low values
Among all 5,500 compounds or so, about 2,000 (36%) were called active. Roughly 18% stayed inconclusive and do not appear here. This is one part of the list.
In this section, each of the molecules is paired with its reported normalized growth.
Answer as a number with no unit attached.

These solved cases illustrate the format of a correct answer.
CC(=O)OC(C)(C)[C@@H]1Cc2cc3ccc(=O)oc3cc2O1 : 0.981
c1cncc(C2CCCCN2)c1 (stereo not drawn) : 0.999
CN1CCCN=C1COC(=O)C(O)(c1ccccc1)C1CCCCC1 (stereo not drawn) : 1.02
CCC(=O)O[C@H]1CCC2C3CCC4=CC(=O)CC[C@]4(C)C3CC[C@@]21C (stereo partly drawn) : 0.781

### Prompt What measured normalized growth goes with CN1CCc2cc3c(cc2[C@H]1C1OC(=O)c2c1ccc1c2OCO1)OCO3 (stereo partly drawn) ?
### Response 0.975

### Prompt Find the recorded normalized growth belonging to OCCN1C[C@@H](O)[C@@H](O)C(O)C1CO (stereo partly drawn) and report it.
### Response 0.997

### Prompt # lookup: normalized growth of C[C@]12CCC(=O)C=C1CCC1C2CC[C@@]2(C)C1CC[C@@H]2O (stereo partly drawn)
### Response 0.963

### Prompt Which measured normalized growth value corresponds to CC(=O)[C@H]1CCC2C3CCC4=CC(=O)CC[C@]4(C)C3CC[C@@]21C (stereo partly drawn) ?
### Response 0.865

---

# Assay Procedure: chemical genetic growth profiling, strain panel (AID 1159580);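 also: tested at 20 µM; growth read once vehicle control cultures reached saturation at 30 °C; 1 = growth at the plate median or of vehicle wells; lower values mean less growth of the strain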
# Stated Conditions: S. cerevisiae deletion strains, growth OD, locus YDL108W, strain KIN28, hits give low values
The campaign covered roughly 5,500 compounds. About 2,000 (36%) were called active. Not shown: some 18% with an inconclusive outcome. Some of the results follow.
Metric Name: normalized growth
Reply with just the number.

Take a look at these entries with their results.
Cc1ccc(Sc2c(Sc3ccc(C)cc3)c(=O)c2=O)cc1 : 0.964
COc1cc(NC(=S)NNS(=O)(=O)c2ccc(C)cc2)c(OC)cc1Cl : 0.984
N#Cc1ccc(S(=O)(=O)Nc2ccccc2Oc2ccc(Cl)cc2Cl)cc1 : 0.973

### Prompt Returns the measured normalized growth for the input compound. Input: `O=S(=O)(Nc1cccc(CCc2ccccn2)c1)c1cc(Cl)c(Cl)cc1Cl`
### Response 0.983

### Prompt Could you tell me which normalized growth is on file for CS(=NC(=O)c1cccc(Cl)c1)c1ccc(OC(=O)c2ccc(Cl)cc2)cc1 (stereo not given) ?
### Response 0.964

### Prompt Requested field: normalized growth. Item: `Cc1nnsc1C(=O)NNc1c(Cl)cccc1Cl`
### Response 0.981

### Prompt Need normalized growth of `Cc1nnsc1C(=O)NNc1ccc(F)cc1F` , thanks.
### Response 0.965

### Prompt Please give the measured normalized growth for this compound: `CCOC(=O)CSC(=S)NCc1ccc(C)cc1`
### Response 0.956

### Prompt State the recorded normalized growth for this entry: `COc1ccc(CN2CSC(=S)N(Cc3ccc(OC)cc3)C2)cc1`
### Response 0.955

### Prompt Form field: reported normalized growth of `Cc1nn(Cc2cccc(C(=O)Nc3ccc(Cl)cc3)c2)c(C)c1Br`
### Response 0.979

### Prompt Requested read-out: normalized growth. Entry: `COc1ccc(/C=C2\CSc3ccc(F)cc3C2=O)cc1`
### Response 0.955

### Prompt Record request: normalized growth value, item `O=C(Oc1ccc(C(F)(F)F)cc1[N+](=O)[O-])c1cccc(Cl)c1`
### Response 0.936
